System: S. pyogenes
Type: cell-based
Details: strain 2094 Macrolide-R [erm(A)]; 4 × MIC

compound: CC[C@H]1OC(=O)[C@@](C)(F)C(=O)[C@H](C)[C@@H](OC2OC(C)CC(N(C)C)C2O)[C@@](C)(OC)C[C@@H](C)C(=O)[C@H](C)[C@H]2N(CCCCn3cc(-c4cccc(N)c4)nn3)C(=O)O[C@]12C (stereo partly shown)
single step mutation frequency: 2.1 × 10^−9
//
compound: CCC[C@@H]1C[C@@H](C(=O)N[C@@H]([C@H]2O[C@H](SC)[C@H](O)[C@@H](O)[C@H]2O)[C@H](C)Cl)N(C)C1
single step mutation frequency: 1.3 × 10^−7
//
compound: CC[C@H]1OC(=O)[C@H](C)C(=O)[C@H](C)[C@@H](O[C@@H]2O[C@H](C)C[C@H](N(C)C)[C@H]2O)[C@](C)(OC)C[C@@H](C)C(=O)[C@H](C)[C@H]2N(CCCCn3cnc(-c4cccnc4)c3)C(=O)O[C@]12C
single step mutation frequency: <1.5 × 10^−10
//
compound: CC[C@H]1OC(=O)[C@H](C)[C@@H](O[C@H]2C[C@@](C)(OC)[C@@H](O)[C@H](C)O2)[C@H](C)[C@@H](O[C@@H]2O[C@H](C)C[C@H](N(C)C)[C@H]2O)[C@](C)(OC)C[C@@H](C)C(=O)[C@H](C)[C@@H](O)[C@]1(C)O
single step mutation frequency: 1.0 × 10^−7

Data origin: patent US9901592B2
